assay: Cytotoxicity test in HEK293 cells (CCK8); format: cell-based; settings: human, overnight, HEK293, CCK8 OD450, read-out: cell viability
Property Name: viability at 50 µM

Q: Query: viability at 50 µM; subject: O=C(/C=C/c1cccc(-c2ccccc2)c1)N1C(=O)OC[C@@H]1c1ccccc1 [A57]
A: ~100%
